Value source: paper PMC10687582

Tested system: PPARα (Homo sapiens)
Sequence (Q07869 200-468 limits assumed): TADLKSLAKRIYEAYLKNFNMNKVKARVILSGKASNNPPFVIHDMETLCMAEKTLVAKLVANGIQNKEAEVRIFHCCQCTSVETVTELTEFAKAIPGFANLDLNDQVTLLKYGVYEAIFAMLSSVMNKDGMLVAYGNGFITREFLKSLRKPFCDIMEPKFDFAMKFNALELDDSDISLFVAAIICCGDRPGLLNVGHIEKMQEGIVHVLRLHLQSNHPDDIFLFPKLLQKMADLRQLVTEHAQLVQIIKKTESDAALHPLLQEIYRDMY
Run description: ITC (KD […]; WT in the mutant comparison […]); SPR KD […]; CETSA and DARTS in HepG2 lysates
Reported metric: pKd
Give bare numbers, as −log10 of the molar value.

Ask | Please look up its pKd: COc1cc(C(=O)C(CO)c2cc(C3OCC4C(c5ccc(O)c(OC)c5)OCC34)cc(OC)c2O)ccc1O (stereo not shown)
Reply | 5.49
